Target: T1, IL-4 receptor (immobilized on BIAcore CM5 chip) (human, UniProt P24394 26-232, limits assumed)
T1 construct: also called IL-4Rα; IL-4 receptor alpha chain
T1 sequence (looked up): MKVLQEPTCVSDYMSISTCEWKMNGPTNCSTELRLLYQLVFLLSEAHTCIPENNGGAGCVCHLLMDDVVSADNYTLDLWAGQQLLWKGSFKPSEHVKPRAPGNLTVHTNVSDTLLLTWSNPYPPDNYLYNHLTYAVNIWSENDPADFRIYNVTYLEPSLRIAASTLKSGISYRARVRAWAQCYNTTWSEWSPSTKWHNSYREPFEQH
Test: BIAcore SPR, IL-4 receptor amine-coupled to CM5 chip, mutein injected, direct binding kinetics
OBSERVATION_TYPE: pKd
Reminder that pKd means the negative base-10 logarithm of the concentration expressed in mol/L.

Some solved cases for reference:
[[record]]
binder = "IL4-RE-K37C, PEGylated with linear 22 kD mPEG-maleimide (ligand, linear 22 kD methoxy-polyethylene glycol-maleimide on Cys 37 (numbered according to wild type IL-4), also called PEG-IL4RE) MHKCDITLQEIIKTLNSLTEQKTLCTELTVTDIFAASCNTTEKETFCRAATVLRQFYSHHEKDTRCLGATAQQFHRHKQLIRFLKRLDRNLWGLAGLNSCPVKEANQSTLENFLERLKTIMDEKDSKCSS"
readout_number = 9.13

[[record]]
binder = "IL-4RA (IL-4 double mutein R121D/Y124D, unPEGylated) (ligand, also called BAY 16-9996; IL-4DM) MHKCDITLQEIIKTLNSLTEQKTLCTELTVTDIFAASKNTTEKETFCRAATVLRQFYSHHEKDTRCLGATAQQFHRHKQLIRFLKRLDRNLWGLAGLNSCPVKEANQSTLENFLERLKTIMDEKDSKCSS"
readout_number = 9.96

[[record]]
binder = "IL4-RE-N38C, PEGylated with linear 22 kD mPEG-maleimide (ligand, linear 22 kD methoxy-polyethylene glycol-maleimide on Cys 38 (numbered according to wild type IL-4), also called PEG-IL4RE) MHKCDITLQEIIKTLNSLTEQKTLCTELTVTDIFAASKCTTEKETFCRAATVLRQFYSHHEKDTRCLGATAQQFHRHKQLIRFLKRLDRNLWGLAGLNSCPVKEANQSTLENFLERLKTIMDEKDSKCSS"
readout_number = 9.11

[[record]]
binder = "IL4-RE-A104C, PEGylated with linear 22 kD mPEG-maleimide (ligand, linear 22 kD methoxy-polyethylene glycol-maleimide on Cys 104 (numbered according to wild type IL-4), also called PEG-IL4RE) MHKCDITLQEIIKTLNSLTEQKTLCTELTVTDIFAASKNTTEKETFCRAATVLRQFYSHHEKDTRCLGATAQQFHRHKQLIRFLKRLDRNLWGLAGLNSCPVKECNQSTLENFLERLKTIMDEKDSKCSS"
readout_number = 9.25

[[record]]
binder = "IL4-RE-N105C, PEGylated with linear 22 kD mPEG-maleimide (ligand, linear 22 kD methoxy-polyethylene glycol-maleimide on Cys 105 (numbered according to wild type IL-4), also called PEG-IL4RE) MHKCDITLQEIIKTLNSLTEQKTLCTELTVTDIFAASKNTTEKETFCRAATVLRQFYSHHEKDTRCLGATAQQFHRHKQLIRFLKRLDRNLWGLAGLNSCPVKEACQSTLENFLERLKTIMDEKDSKCSS"
readout_number = 9.23


Moving on to another binder below.
I'd like to know its pKd. The binder in question is IL4-RE-Q106C, PEGylated with linear 22 kD mPEG-maleimide (ligand, linear 22 kD methoxy-polyethylene glycol-maleimide on Cys 106 (numbered according to wild type IL-4), also called PEG-IL4RE) MHKCDITLQEIIKTLNSLTEQKTLCTELTVTDIFAASKNTTEKETFCRAATVLRQFYSHHEKDTRCLGATAQQFHRHKQLIRFLKRLDRNLWGLAGLNSCPVKEANCSTLENFLERLKTIMDEKDSKCSS
9.28
